Reported pEC50 values follow for various binders
Biological target: T1, human ICOS (human, UniProt Q9Y6W8 21-199)
T1 construct: The cell that carries it is named under assay; also called huICOS; CD278
T1 sequence: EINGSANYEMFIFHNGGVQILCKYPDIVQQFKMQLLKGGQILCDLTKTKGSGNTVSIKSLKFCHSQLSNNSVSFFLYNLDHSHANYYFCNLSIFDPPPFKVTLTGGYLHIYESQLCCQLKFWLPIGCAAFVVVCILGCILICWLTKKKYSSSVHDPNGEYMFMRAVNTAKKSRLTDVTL
Test: flow cytometry, CHO cells expressing human ICOS
Notebook: values listed as pEC50 are -log10 of the concentration (mol/L).

# count of solved cases: 3
Binder	pEC50
Molecule 30 (ICOS H1143v2_2) (antibody, human IgG1, kappa, L234A L235A, V domains shown, Human IgG format) VH: EVQLLESGGGLVQPGGSLRLSCAASGFDFSSAYDMSWVRQAPGKGLEWVSVIYYGDGITYYADSVKGRFTISKTSSKTTLYLQMNSLRAEDTAVYFCARGAFLGSSYYLSLWGQGTLVTVSS VL: DIQMTQSPSSLSASVGDRVTITCRASENIYNWLAWYQQKPGKAPKLLIYDASKLASGVPSRFSGSGSGTDFTLTISSLQPEDFATYYCQQAYTYGNIDNAFGGGTKVEIKR	8.65
Molecule 35 (ICOS H1138_3) (antibody, human IgG1, kappa, L234A L235A, V domains shown, Human IgG format) VH: EVQLLESGGGLVQPGGSLRLSCAASGFDLSSYYYMSWVRQAPGKGLEWVSSIYADIYGGTTHYASWAKGRFTISKTSSTTLYLQMNSLRAEDTAVYFCAREDGSRYGGSGYYNLWGQGTLVTVSS VL: AIQMTQSPSSLSASVGDRVTITCRASQNIYSNLAWYQQKPGKPPKLLIYAASYLTSGVSSRFSGSGSGTDFTLTISSLQPEDFATYYCQQGHTTDNIDNAFGGGTKVEIKR	8.57
Molecule 32 (ICOS 1138) (antibody, human IgG1, kappa, L234A L235A, V domains shown, Human IgG format; also called parental antibody of Molecules 33-35) VH: QSLEESGGDLVKPGASLTLTCTASGFDLSSYYYMSWVRQAPGKGLEWIASIYADIYGGTTHYASWAKGRFTISKTSSTTVTLQMTSLTAADTATYFCAREDGSRYGGSGYYNLWGPGTLVTVSS VL: ALVMTQTPSSVSAAVGGTVTINCQASQNIYSNLAWYQQKPGQPPKLLIYAASYLTSGVSSRFKGSGAGTQFTLTISGVESADAATYYCQQGHTTDNIDNAFGGGTEVVVKR	8.67

Here is another binder to look at.
QUERY: # query: pEC50 of entry Molecule 31 (ICOS H1143v2_3) (antibody, human IgG1, kappa, L234A L235A, V domains shown, Human IgG format) VH: EVQLLESGGGLVQPGGSLRLSCAASGFDFSSAYDMSWVRQAPGKGLEWIGVIYYGDGITYYADSVKGRFTISRDNSNTLYLQMNSLRAEDTAVYFCARGAFLGSSYYLSLWGQGTLVTVSS VL: DIQMTQSPSSLSASVGDRVTITCRASENIYNWLAWYQQKPGKAPKLLIYDASKLASGVPSRFSGSGSGTDFTLTISSLQPEDFATYYCQQAYTYGNIDNAFGGGTKVEIKR
RESULT: 8.76
